Cited source: patent US9828348B2

A collection of compounds and their measured IC50
# TEST TARGET: UniProt:Q15858
# Sequence (Q15858 with tags, fused parts or gaps limits assumed): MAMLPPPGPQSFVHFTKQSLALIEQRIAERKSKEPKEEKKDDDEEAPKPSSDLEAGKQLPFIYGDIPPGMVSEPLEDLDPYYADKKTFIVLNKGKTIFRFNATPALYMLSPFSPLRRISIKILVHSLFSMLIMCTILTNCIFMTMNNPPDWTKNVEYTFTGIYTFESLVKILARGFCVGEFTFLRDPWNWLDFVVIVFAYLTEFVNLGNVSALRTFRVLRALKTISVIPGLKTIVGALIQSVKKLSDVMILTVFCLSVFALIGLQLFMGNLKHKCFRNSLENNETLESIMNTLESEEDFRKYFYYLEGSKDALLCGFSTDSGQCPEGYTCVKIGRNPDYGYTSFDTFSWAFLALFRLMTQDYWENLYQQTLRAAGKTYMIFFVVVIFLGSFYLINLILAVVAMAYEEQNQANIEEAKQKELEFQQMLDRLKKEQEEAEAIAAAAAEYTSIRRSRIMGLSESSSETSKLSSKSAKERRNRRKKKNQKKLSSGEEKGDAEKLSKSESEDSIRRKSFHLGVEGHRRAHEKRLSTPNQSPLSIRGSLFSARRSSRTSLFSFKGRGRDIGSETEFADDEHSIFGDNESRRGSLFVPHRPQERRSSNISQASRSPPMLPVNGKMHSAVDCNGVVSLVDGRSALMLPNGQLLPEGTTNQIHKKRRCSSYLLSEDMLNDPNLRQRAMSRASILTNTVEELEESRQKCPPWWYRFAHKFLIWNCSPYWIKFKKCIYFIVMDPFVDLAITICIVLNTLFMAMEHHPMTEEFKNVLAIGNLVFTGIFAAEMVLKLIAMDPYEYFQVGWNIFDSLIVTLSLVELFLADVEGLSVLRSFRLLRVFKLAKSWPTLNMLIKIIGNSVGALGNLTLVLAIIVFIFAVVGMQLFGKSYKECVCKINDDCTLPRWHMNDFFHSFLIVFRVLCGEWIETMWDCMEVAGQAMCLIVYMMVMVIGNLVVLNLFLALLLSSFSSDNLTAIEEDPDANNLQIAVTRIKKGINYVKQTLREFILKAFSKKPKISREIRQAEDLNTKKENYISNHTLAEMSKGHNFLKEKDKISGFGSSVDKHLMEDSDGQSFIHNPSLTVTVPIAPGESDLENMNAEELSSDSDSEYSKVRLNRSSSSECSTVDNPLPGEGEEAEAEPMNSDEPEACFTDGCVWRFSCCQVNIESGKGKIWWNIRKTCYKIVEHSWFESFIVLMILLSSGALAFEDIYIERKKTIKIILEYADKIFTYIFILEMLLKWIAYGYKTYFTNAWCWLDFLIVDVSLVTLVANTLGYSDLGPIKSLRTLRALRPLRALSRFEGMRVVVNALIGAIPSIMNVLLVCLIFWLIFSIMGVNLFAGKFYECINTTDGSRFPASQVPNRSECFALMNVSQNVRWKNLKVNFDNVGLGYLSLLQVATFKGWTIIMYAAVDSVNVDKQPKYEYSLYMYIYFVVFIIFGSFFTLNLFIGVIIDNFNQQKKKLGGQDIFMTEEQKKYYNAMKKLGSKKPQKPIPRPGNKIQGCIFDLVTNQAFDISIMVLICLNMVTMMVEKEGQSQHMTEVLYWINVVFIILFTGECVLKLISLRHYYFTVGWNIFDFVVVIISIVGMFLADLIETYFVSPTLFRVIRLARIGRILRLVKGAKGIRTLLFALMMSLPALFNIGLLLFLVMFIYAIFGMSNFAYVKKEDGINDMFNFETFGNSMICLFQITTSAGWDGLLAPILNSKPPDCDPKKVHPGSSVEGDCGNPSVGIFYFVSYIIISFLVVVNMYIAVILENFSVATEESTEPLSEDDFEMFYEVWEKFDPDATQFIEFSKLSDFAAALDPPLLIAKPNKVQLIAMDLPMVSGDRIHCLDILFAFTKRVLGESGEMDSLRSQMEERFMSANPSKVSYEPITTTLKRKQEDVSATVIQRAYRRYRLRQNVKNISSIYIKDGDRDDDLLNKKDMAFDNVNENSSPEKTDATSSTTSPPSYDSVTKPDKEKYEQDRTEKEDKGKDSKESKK
# METHOD NOTES: FLIPR or FLIPR TETRA sodium dye assay with KCl and test article pre-incubation
# Format: cell-based
# CONDITION PARAMETERS: recombinant human Nav1.7 in HEK293 cells; CoroNa Green sodium dye, KCl pre-incubation; veratridine and scorpion venom agonists; read-out: Nav1.7 Activity (μM) FLIPR assay IC50 (μM) ± SEM
MEASURED ENDPOINT: IC50 (µM)

- NC(=O)CN1CCC[C@H]1c1nc2ccccc2n1-c1ccc(Oc2ccc(F)cc2)cc1: 1.22
- CCN(CC)C(=O)CN1CCC(c2nc3ccccc3n2-c2ccc(Oc3ccc(F)cc3)cc2)CC1: 0.516
- Fc1ccc(Oc2ccc(-n3c(C4CCOCC4)nc4ccccc43)cc2)cc1: 0.63
- Fc1ccc(Oc2ccc(-n3c(CCN4CCCCC4)nc4ccccc43)cc2)cc1: 0.081
- NC(=O)CN1CCC(c2nc3ccccc3n2-c2ccc(Oc3ccc(F)cc3)cc2)CC1: 1.49
- O=C1CC[C@@H](c2nc3ccccc3n2-c2ccc(Oc3ccc(F)cc3)cc2)N1: 0.571
- Cn1cc(Cl)c(-c2nc3ccccc3n2-c2ccc(Oc3ccc(F)cc3)cc2)n1: 0.313
